B1: DVL3 (parent)
chain: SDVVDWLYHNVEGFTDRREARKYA

Variants of: B1
METHOD DESCRIPTION: protein stability index of a GFP-peptide fusion (GPS, HEK-293T) (PSI 1-6); higher = more stable;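 further: lentivirally expressed fusions sorted by FACS into six bins by GFP to DsRed ratio, PSI derived from sequencing read proportions per bin multiplied by bin number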
ASSAY CONTEXT: c terminus: a fixed tail appended
Would you mind labelling by protein stability index? At or over 3 is yes (1), under is no (0).

Q) Is it the case that `Y23S` has protein stability index reaching or exceeding 3?
A) yes (1)

Q) Entry `N10H` : is its protein stability index no less than 3?
A) no (0)

Q) Please tell me: is the variant `A24I` at or over 3 in terms of protein stability index?
A) no (0)

Q) Record `A24T` ; criterion: protein stability index no lower than 3. Met?
A) no (0)

Q) Does protein stability index meet or surpass 3 for `S1D` ?
A) yes (1)

Q) Is protein stability index at least 3? Consider `V4D`
A) yes (1)

Q) Is it the case that `S1C` has protein stability index reaching or exceeding 3?
A) no (0)
